- Tested on: Aspergillus flavus
- test.summary: Antimicrobial activity against Aspergillus flavus at 500 ppm after 72 to 96 hr by disk diffusion method
- Format: functional
- experimental.conditions: read-out: IZ
readout.name: zone of inhibition at 500 ppm (mm)
// return numeric value only (unit: mm, not printed)

| mol | readout.name | value.units | endpoint.result |
| --- | --- | --- | --- |
| O=C(/C=C/c1ccc(Cl)cc1)c1ccc(N2CCOCC2)cc1 | zone of inhibition at 500 ppm | mm | 30 |
| Cc1ccc(/C=C/C(=O)c2ccc(N3CCOCC3)cc2)cc1 | zone of inhibition at 500 ppm | mm | 17 |
| O=C(/C=C/c1cccc([N+](=O)[O-])c1)c1ccc(N2CCOCC2)cc1 | zone of inhibition at 500 ppm | mm | 22 |
| O=C(/C=C/c1ccccc1)c1ccc(N2CCOCC2)cc1 | zone of inhibition at 500 ppm | mm | 17 |
| COc1ccc(/C=C/C(=O)c2ccc(N3CCOCC3)cc2)cc1 | zone of inhibition at 500 ppm | mm | 17 |

Task: Tell me its zone of inhibition at 500 ppm given `O=C(/C=C/c1ccc(F)cc1)c1ccc(N2CCOCC2)cc1` as the entry.
Result: 30
